Could you please report measured Emax for the items listed next?
- Study System: PXR (NR1I2) (Homo sapiens, UniProt O75469)
- Sequence (O75469 whole entry): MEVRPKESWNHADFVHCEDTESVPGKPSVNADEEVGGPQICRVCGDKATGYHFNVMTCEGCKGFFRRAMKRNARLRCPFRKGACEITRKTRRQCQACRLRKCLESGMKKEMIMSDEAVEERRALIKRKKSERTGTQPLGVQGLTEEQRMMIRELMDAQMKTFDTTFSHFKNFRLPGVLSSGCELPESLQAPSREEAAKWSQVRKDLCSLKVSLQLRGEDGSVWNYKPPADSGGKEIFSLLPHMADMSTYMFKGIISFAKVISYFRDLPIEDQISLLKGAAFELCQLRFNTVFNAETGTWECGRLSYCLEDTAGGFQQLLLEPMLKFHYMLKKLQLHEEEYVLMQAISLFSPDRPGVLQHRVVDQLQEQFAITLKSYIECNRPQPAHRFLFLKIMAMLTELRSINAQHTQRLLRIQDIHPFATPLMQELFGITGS
- Experiment Notes: Activation of PXR (unknown origin) assessed as maximal efficacy relative to control
- Format: toxicity
One number for each entry, in %.

Sample records with Emax:
>>> test_result("CCOc1ccccc1C(=O)Nc1cccc2c1C(=O)N(CC1CC1)C2")
81
>>> test_result("Cc1nnc(-c2ccc(-c3c(F)cc(F)c4c3C(=O)N([C@H](C3CC3)C(C)(C)O)C4)cc2)o1")
100
>>> test_result("Cc1nnc(-c2ccc(-c3cccc4c3C(=O)N([C@H](C3CC3)C(C)(C)O)C4)cc2)o1")
89

Give one value of Emax per listed compound.
1. CN1Cc2cc(-c3cccc4c3C(=O)N([C@H](C3CC3)C(C)(C)O)C4)ccc2C1=O
2. Cc1nnc(-c2ccc(-c3c(F)cc(F)c4c3C(=O)N([C@@H](C(C)(C)O)C(F)(F)F)C4)cc2)o1

11
100

----------
- Experiment Notes: Metabolic stability in human hepatocytes assessed as intrinsic clearance
- Format: ADME, cell-based, Hepatocyte
- Experimental Context: read-out: CLH
Property Label: CLint scaled
Please answer in the form of a number followed by its unit of measurement.

Past entries and their recorded results:
>>> test_result("Cc1nnc(-c2ccc(-c3cc(F)c(F)c4c3C(=O)N([C@H](C3CC3)C(C)(C)O)C4)cc2)o1")
"13 mL/min/kg"
>>> test_result("Cc1nnc(-c2ccc(-c3cccc4c3C(=O)N([C@H](C3CC3)C(C)(C)O)C4)cc2)o1")
"15 mL/min/kg"
>>> test_result("Cc1nnc(-c2ccc(-c3c(F)c(F)cc4c3C(=O)N([C@@H](C(C)(C)O)C(F)(F)F)C4)cc2)o1")
"4.5 mL/min/kg"

Go through the list and state CLint scaled for each entry.
1. Cc1nnc(-c2ccc(-c3c(F)c(F)cc4c3C(=O)N([C@H](C3CC3)C(C)(C)O)C4)cc2)o1
2. Cc1nnc(-c2ccc(-c3cc(F)cc4c3C(=O)N([C@H](C3CC3)C(C)(C)O)C4)cc2)o1

1: 33 mL/min/kg; 2: 19 mL/min/kg

----------
- Experiment Notes: Octanol-water partition coefficient, logD of the compound
- Assay type: physicochemical
Would you mind telling me the reported logD of each entry?
One number for each entry.

>>> test_result("Cc1nnc(-c2ccc(-c3cccc4c3C(=O)N([C@H](C3CC3)C(C)(C)O)C4)cc2)o1")
2.3

Now look at this one.
Need logD of Cc1nnc(-c2ccc(-c3c(F)c(F)cc4c3C(=O)N([C@@H](C(C)(C)O)C(F)(F)F)C4)cc2)o1 , thanks.
2.7

----------
Provide the recorded bioavailability for the entries that follow.
- Experiment Notes: Oral bioavailability in Beagle dog at 1 mg/kg in 30% captisol formulation measured after 24 hrs
- Format: ADME, organism-based, Canis lupus familiaris
- Experimental Context: in vivo
Give bare numbers, in %.

>>> test_result("Cc1nnc(-c2ccc(-c3cc(F)c(F)c4c3C(=O)N([C@H](C3CC3)C(C)(C)O)C4)cc2)o1")
64
>>> test_result("Cc1nnc(-c2ccc(-c3cc(F)cc4c3C(=O)N([C@H](C3CC3)C(C)(C)O)C4)cc2)o1")
100
>>> test_result("Cc1nnc(-c2ccc(-c3c(F)c(F)cc4c3C(=O)N([C@@H](C(C)(C)O)C(F)(F)F)C4)cc2)o1")
79

Please find the next compound below.
Requested field: bioavailability. Item: Cc1nnc(-c2ccc(-c3c(F)c(F)cc4c3C(=O)N([C@H](C3CC3)C(C)(C)O)C4)cc2)o1
75

FYI, the data here is from ChEMBL document CHEMBL5357022.
